Source listed as ChEMBL document CHEMBL1149180.

- Assay: Area under curve after 10 mg/kg oral administration in rat at 0-24 hr
- Format: ADME, organism-based
- Parameters: time < 24 hr, dose 10 mg/kg, route oral
- Experimental Conditions: in vivo
Kindly supply the reported AUC at 24 h values for the records listed here.
Output spec: scalar in ng·h/mL, unitless text.

**Q:** Assign AUC at 24 h to the following record: Cc1cc(=O)c(Oc2ccc(F)cc2F)c(-c2ccc(S(C)(=O)=O)cc2)o1
**A:** 90200

**Q:** Assign AUC at 24 h to the following record: Cc1cc(=O)c(Oc2ccc(Cl)cc2)c(-c2ccc(S(C)(=O)=O)cc2)o1
**A:** 69000

**Q:** Assign AUC at 24 h to the following record: Cc1cc(=O)c(Oc2ccc(Br)cc2F)c(-c2ccc(S(C)(=O)=O)cc2)o1
**A:** 10900

**Q:** Assign AUC at 24 h to the following record: Cc1cc(=O)c(Oc2ccc(Cl)cc2F)c(-c2ccc(S(C)(=O)=O)cc2)o1
**A:** 23400

----------
Kindly supply the reported pIC50 values for the records listed here.
- System: Prostaglandin G/H synthase 1 (Homo sapiens, UniProt P23219)
- Sequence (P23219 whole entry): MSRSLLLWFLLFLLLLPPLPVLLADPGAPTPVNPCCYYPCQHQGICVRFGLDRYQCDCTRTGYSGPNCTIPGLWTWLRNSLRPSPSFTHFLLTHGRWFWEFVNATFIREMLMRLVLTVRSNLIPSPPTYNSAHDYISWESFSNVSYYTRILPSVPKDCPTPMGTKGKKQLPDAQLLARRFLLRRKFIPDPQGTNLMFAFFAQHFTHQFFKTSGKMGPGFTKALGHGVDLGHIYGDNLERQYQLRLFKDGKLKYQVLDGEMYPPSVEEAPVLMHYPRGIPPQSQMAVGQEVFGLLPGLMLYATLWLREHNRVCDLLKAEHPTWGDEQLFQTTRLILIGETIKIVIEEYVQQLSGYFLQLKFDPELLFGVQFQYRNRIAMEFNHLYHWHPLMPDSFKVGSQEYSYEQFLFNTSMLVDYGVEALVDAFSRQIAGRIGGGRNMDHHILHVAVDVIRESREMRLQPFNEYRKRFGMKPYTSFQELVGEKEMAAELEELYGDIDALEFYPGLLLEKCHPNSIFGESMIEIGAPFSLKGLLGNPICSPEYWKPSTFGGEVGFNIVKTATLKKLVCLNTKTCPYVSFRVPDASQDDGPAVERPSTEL
- Assay: Inhibition concentration against cyclooxygenase-1 (COX-1) in human whole blood
On this scale, pIC50 is minus log10 of a concentration expressed in M (mol/L).

**Q:** Answer with pIC50 of Cc1cc(=O)c(Oc2ccc(Cl)cc2F)c(-c2ccc(S(C)(=O)=O)cc2)o1 measured for Prostaglandin G/H synthase 1 (Homo sapiens, UniProt P23219).
**A:** 4.73

**Q:** Answer with pIC50 of Cc1cc(=O)c(Oc2ccc(Br)cc2)c(-c2ccc(S(C)(=O)=O)cc2)o1 measured for Prostaglandin G/H synthase 1 (Homo sapiens, UniProt P23219).
**A:** 3.92

**Q:** Answer with pIC50 of Cc1cc(=O)c(Oc2ccc(Cl)cc2)c(-c2ccc(S(C)(=O)=O)cc2)o1 measured for Prostaglandin G/H synthase 1 (Homo sapiens, UniProt P23219).
**A:** 3.68

**Q:** Answer with pIC50 of Cc1cc(=O)c(Oc2ccc(Br)cc2Cl)c(-c2ccc(S(C)(=O)=O)cc2)o1 measured for Prostaglandin G/H synthase 1 (Homo sapiens, UniProt P23219).
**A:** 4.45

**Q:** Answer with pIC50 of Cc1cc(=O)c(Oc2ccccc2C)c(-c2ccc(S(C)(=O)=O)cc2)o1 measured for Prostaglandin G/H synthase 1 (Homo sapiens, UniProt P23219).
**A:** 4.64

**Q:** Answer with pIC50 of Cc1cc(=O)c(Oc2ccc(Br)cc2F)c(-c2ccc(S(C)(=O)=O)cc2)o1 measured for Prostaglandin G/H synthase 1 (Homo sapiens, UniProt P23219).
**A:** 4.64

**Q:** Answer with pIC50 of Cc1ccc(Oc2c(-c3ccc(S(C)(=O)=O)cc3)oc(C)cc2=O)c(Cl)c1 measured for Prostaglandin G/H synthase 1 (Homo sapiens, UniProt P23219).
**A:** 4.78

**Q:** Answer with pIC50 of Cc1cc(=O)c(Oc2ccc(Cl)cc2C)c(-c2ccc(S(C)(=O)=O)cc2)o1 measured for Prostaglandin G/H synthase 1 (Homo sapiens, UniProt P23219).
**A:** 4.44

**Q:** Answer with pIC50 of COc1ccc(Oc2c(-c3ccc(S(C)(=O)=O)cc3)oc(C)cc2=O)c(Cl)c1 measured for Prostaglandin G/H synthase 1 (Homo sapiens, UniProt P23219).
**A:** 4.86
